Assay: Oral bioavailability in po dosed dog
Format: ADME, organism-based, Canis lupus familiaris
Conditions: in vivo
EXPERIMENTAL READOUT: bioavailability (%)
Numbers only, in %.

Worked examples, 2 compounds total:
SAMPLE SMILES: NS(=O)(=O)c1ccccc1-n1nc(C(F)(F)F)c2c1C(=O)N(c1ccc(-c3ccccc3CN3CC[C@@H](O)C3)cc1)CC2
UNIT SPEC: %
REPORTED VALUE: 93

SAMPLE SMILES: CN(C)Cc1ccccc1-c1ccc(N2CCc3c(C(F)(F)F)nn(-c4ccccc4S(N)(=O)=O)c3C2=O)cc1
UNIT SPEC: %
REPORTED VALUE: 52

Look up bioavailability for the entries below, preserving their order.
1. CN(C)Cc1ccccc1-c1ccc(N2CCc3c(C(F)(F)F)nn(-c4cccc(C(N)=O)c4)c3C2=O)cc1
2. NC(=O)c1cccc(-n2nc(C(F)(F)F)c3c2C(=O)N(c2ccc(-c4ccccc4CN4CC[C@@H](O)C4)cc2)CC3)c1

Completion:
[93, 72]

* * *

What Papp was measured for each of the following?
Test system: Caco-2
Experiment: Apparent permeability across Caco-2 cell membrane
Assay type: ADME, cell-based
Settings: human
Give bare numbers, in ucm.

Examples with their reported Papp follow.
SAMPLE SMILES: CN(C)Cc1ccccc1-c1ccc(N2CCc3c(C(F)(F)F)nn(-c4cccc(C(N)=O)c4)c3C2=O)cc1
REPORTED VALUE: 5.5
//
SAMPLE SMILES: Nc1noc2ccc(-n3nc(C(F)(F)F)c4c3C(=O)N(c3ccc(-c5ccccc5CN5CC[C@@H](O)C5)cc3)CC4)cc12
REPORTED VALUE: 1.7

Could you report Papp for every entry in the following list?
1. CN(C)Cc1ccccc1-c1ccc(N2CCc3c(C(F)(F)F)nn(-c4ccccc4S(N)(=O)=O)c3C2=O)cc1
2. NC(=O)c1cccc(-n2nc(C(F)(F)F)c3c2C(=O)N(c2ccc(-c4ccccc4CN4CC[C@@H](O)C4)cc2)CC3)c1
3. NS(=O)(=O)c1ccccc1-n1nc(C(F)(F)F)c2c1C(=O)N(c1ccc(-c3ccccc3CN3CC[C@@H](O)C3)cc1)CC2

Completion:
1: 5.8; 2: 2.9; 3: 1.1

* * *

Experiment: Binding affinity to human APC
EXPERIMENTAL READOUT: Ki

Prompt: Sample CN(C)Cc1nccn1-c1ccc(NC(=O)c2cc(C(F)(F)F)nn2-c2ccc3onc(N)c3c2)c(F)c1 [RAZAXABAN] — what was its Ki?
Completion: > 2300 nM

* * *

Would you kindly list clearance for each of these compounds?
Test: Clearance in dog
Type: ADME, organism-based, Canis lupus familiaris
Conditions: in vivo
Answers are plain numbers, in mL/min/kg.

SAMPLE SMILES: CN(C)Cc1ccccc1-c1ccc(N2CCc3c(C(F)(F)F)nn(-c4cccc(C(N)=O)c4)c3C2=O)cc1
UNIT SPEC: mL/min/kg
clearance: 7.17

Dear colleague, could you please provide clearance for the compounds listed below?
1. NC(=O)c1cccc(-n2nc(C(F)(F)F)c3c2C(=O)N(c2ccc(-c4ccccc4CN4CC[C@@H](O)C4)cc2)CC3)c1
2. NS(=O)(=O)c1ccccc1-n1nc(C(F)(F)F)c2c1C(=O)N(c1ccc(-c3ccccc3CN3CC[C@@H](O)C3)cc1)CC2
3. CN(C)Cc1ccccc1-c1ccc(N2CCc3c(C(F)(F)F)nn(-c4ccccc4S(N)(=O)=O)c3C2=O)cc1

Completion:
1: 7.17; 2: 4.83; 3: 8.33
